Ref: patent US12122785B2

- Tested on: TYK2 pseudokinase (JH2); IL-23-stimulated HEK-Blue IL-23 cells
- measurement_notes: HEK-Blue IL-23 reporter assay (STAT3-inducible SEAP) for profiling TYK2 pseudokinase (JH2) inhibition
- Assay type: cell-based
- condition_notes: 10 ng/mL human recombinant IL-23, SEAP readout, read-out: IL23 (TYK2 inhibitory activity, IC50)
pIC50: −log10 of the molar value.
For each entry below, report its pIC50 value.

Look over these answered cases.
In [3]: df
Out[3]:
                            compound_string    meas_value
0  [2H]C([2H])([2H])NC(=O)c1cnc(NC(=O)C2CC2)cc1Nc1cccc2c1N(C)Cc1cn(C(C)C)nc1-2        > 7.52
1  [2H]C([2H])([2H])NC(=O)c1nnc(NC(=O)C2CC2)cc1Nc1cccc2c1N(C)Cc1cn(C(C)C)nc1-2        > 7.52
2  [2H]C([2H])([2H])NC(=O)c1nnc(NC(=O)C2CC2)cc1Nc1nccc2c1N(C)Cc1cc(C)nn1-2        > 7.52
3  [2H]C([2H])([2H])NC(=O)c1cnc(NC(=O)C2CC2)cc1Nc1cccc2c1OCc1cn(C)nc1-2  6.52 to 7.52
4  CNC(=O)c1nnc(NC(=O)C2CC2)cc1Nc1cccc2c1OCc1cnn(C)c1-2  6.00 to 6.52

Your task in this section: give pIC50 for each listed record.
1. [2H]C([2H])([2H])NC(=O)c1nnc(NC(=O)C2CC2)cc1Nc1cccc2c1N(C)C([2H])([2H])c1cc(C)nn1-2
2. [2H]C([2H])([2H])NC(=O)c1nnc(NC(=O)NC)cc1Nc1nccc2c1N(C)Cc1cc(C)nn1-2

OUTPUT:
["> 7.52", "> 7.52"]
